assay: Half life of compound in human MIA PaCa-2 cell homogenate; format: ADME, tissue-based
RESULT_TYPE: half-life (min)

Below: 3 compounds and their reported half-life.
{"SMILES_ENTRY": "N[C@@H](CC(=O)OC[C@H]1O[C@@H](n2cc(F)c(=O)[nH]c2=O)C[C@@H]1O)C(=O)O", "UNIT_SYMBOL": "min", "half-life": 16.4}
{"SMILES_ENTRY": "CC(C)[C@H](N)C(=O)O[C@H]1C[C@H](n2cc(F)c(=O)[nH]c2=O)O[C@@H]1CO", "UNIT_SYMBOL": "min", "half-life": 12.2}
{"SMILES_ENTRY": "CC(C)[C@H](N)C(=O)OC[C@H]1O[C@@H](n2cc(F)c(=O)[nH]c2=O)C[C@@H]1OC(=O)[C@@H](N)C(C)C", "UNIT_SYMBOL": "min", "half-life": 8.4}

a: N[C@@H](CCC(=O)OC[C@H]1O[C@@H](n2cc(F)c(=O)[nH]c2=O)C[C@@H]1O)C(=O)O
b: N[C@@H](CC(=O)O[C@H]1C[C@H](n2cc(F)c(=O)[nH]c2=O)O[C@@H]1CO)C(=O)O
c: N[C@@H](CCC(=O)O[C@H]1C[C@H](n2cc(F)c(=O)[nH]c2=O)O[C@@H]1CO)C(=O)O
Problem: Rank by half-life (largest to smallest). Show the ranking through the labels, in the order asked for.
Result: b, a, c
